tested on: TK-10; assay: NCI tumour cell line growth inhibition, 48 h
The source made the active and inactive calls. No stated cut-off is given here; in the data, active = GI50 up to about 1.1 µM and inactive = higher. *1 amine or outer side, *2 acyl side, *3 side chain or, on linkers, in order; H or OH if unused. Where a SMILES comes first, the peptide text is derived from it. Bridges are numbered along the chain shown (N, C = ends). Roman numbers before positions name the chains, in order. [ ]: non-standard residue; d: D form. Actinocin(1to9) = Cc1c2oc3c(C)ccc(C(=O)[*:2])c3nc-2c(C(=O)[*:1])c(N)c1=O; NMeV = CN[CH](C(=O)O)C(C)C; Sar = CNCC(=O)O
The reply should be one of these categories: 1 for active, -1 for inactive

Sample answers from the record:
OCC(O)COc1ccc(F)cc1 (configuration not stated) ... -1
O=C(O)c1cccc(S(=O)(=O)NN2C(=O)CSC2c2c(O)ccc3ccccc23)c1 (configuration not stated) ... -1

Query string: What call does the record list for `COc1cc([C@@H]2c3cc4c(cc3[C@@H](c3c(O)cc(O)c5c3O[C@H](c3ccc(O)c(O)c3)[C@H](OC(=O)c3cc(O)c(O)c(O)c3)C5)[C@H]3COC(=O)[C@H]23)OCO4)cc(OC)c1OC` ?
Result string: -1

Query string: Returns: the outcome recorded for `Nc1cccc(C(=O)/C=C/c2ccccc2O)c1` in this assay.
Result string: -1

Query string: Lab log entry: `CN(C)CCNC(=O)c1cccc2nc3cc(Cl)ccc3nc12` — outcome as called in the assay?
Result string: -1

Query string: // return assay outcome for O=C(NCCc1ccccc1)C1C(=O)C(=O)N(CCc2ccccc2)C1=O (configuration not stated)
Result string: -1

Query string: Hi, do you know how `Cc1cn2c(/C=C3/C(=O)Nc4cccc(Cl)c43)c(Cl)nc2s1` came out in this test?
Result string: -1

Query string: // outcome(item) with item = CCC(C)C1NC(=O)C(NC(=O)c2c3nc4c(C(=O)NC5C(=O)NC(C(C)C)C(=O)N6CCCC6C(=O)N(C)CC(=O)N(C)C(C(C)C)C(=O)OC5C)ccc(C)c4oc-3c(C)c(=O)c2N)C(C)OC(=O)C(C(C)C)N(C)C(=O)CN(C)C(=O)C2CCCN2C1=O (configuration not stated) (I: TIP[Sar][NMeV] / II: TVP[Sar][NMeV]; ester I:1-I:C, II:1-II:C; linker I:N-II:N via Actinocin(1to9); configuration not given here)
Result string: 1

* * *

Entries annotated with measured GI50
test system: CAKI-1; test: NCI tumour cell line growth inhibition, 48 h
Activity calls are given as the source filed them. Cut-off read from the data, not from the text of the source: active = GI50 up to about 1.1 µM and inactive = higher.

Example cases with answers are listed next.
CCCCOCc1cc(CN2CCN(C)CC2)c(O)c2ncccc12 ... 24.6 µM (inactive)
COc1ccc2oc(-c3ccncc3)cc(=O)c2c1 ... 33.2 µM (inactive)
COC(=O)c1cc(NC(=O)c2cc(NC(=O)Cc3c[nH]c4ccccc34)cn2C)cn1C ... 57.1 µM (inactive)
COc1cc(/C=C(\NC(=O)c2ccccc2)c2nc3cc([N+](=O)[O-])ccc3[nH]2)cc(OC)c1OC ... 68.5 µM (inactive)
CCOC(=O)CCC(NC(=O)Cc1ccc(Nc2nc3ccccc3nc2-c2ccccc2)cc1)C(=O)OCC (stereo not drawn) ... > 100 µM (inactive)

Query string: Form field: GI50 recorded for CCOC(=O)N1C(c2ccccc2)C=CC(c2ccccc2)N1C(=O)OCC (stereo not drawn) with CAKI-1 (enter value)
Result string: > 100 µM (inactive)

Query string: Missing value: GI50, CAKI-1, entry COc1ccc(OC)c(CC(C)N)c1 (stereo not drawn) . Fill in?
Result string: > 100 µM (inactive)

Query string: Requested read-out GI50, target or system CAKI-1, entry `CC(=O)Nc1cccc(/N=N/N(C)C)c1`
Result string: > 100 µM (inactive)

Query string: Notebook entry, CAKI-1 assay: GI50 of CC1(c2nc3ccccc3[nH]2)CCC(C(=O)O)C(C)(C)O1 (stereo not drawn) = ?
Result string: > 100 µM (inactive)

Query string: Param readout = GI50; param system = CAKI-1; param query = C=C1CC[C@H]2C(=O)OC(c3ccoc3)C[C@]2(C)C/C=C\C=C/1C(=O)OC (stereo partly drawn) ; response: value
Result string: > 25 µM (inactive)
